Target desc: ABCB1 (P-glycoprotein) (Homo sapiens)
Sequence (P08183 whole entry): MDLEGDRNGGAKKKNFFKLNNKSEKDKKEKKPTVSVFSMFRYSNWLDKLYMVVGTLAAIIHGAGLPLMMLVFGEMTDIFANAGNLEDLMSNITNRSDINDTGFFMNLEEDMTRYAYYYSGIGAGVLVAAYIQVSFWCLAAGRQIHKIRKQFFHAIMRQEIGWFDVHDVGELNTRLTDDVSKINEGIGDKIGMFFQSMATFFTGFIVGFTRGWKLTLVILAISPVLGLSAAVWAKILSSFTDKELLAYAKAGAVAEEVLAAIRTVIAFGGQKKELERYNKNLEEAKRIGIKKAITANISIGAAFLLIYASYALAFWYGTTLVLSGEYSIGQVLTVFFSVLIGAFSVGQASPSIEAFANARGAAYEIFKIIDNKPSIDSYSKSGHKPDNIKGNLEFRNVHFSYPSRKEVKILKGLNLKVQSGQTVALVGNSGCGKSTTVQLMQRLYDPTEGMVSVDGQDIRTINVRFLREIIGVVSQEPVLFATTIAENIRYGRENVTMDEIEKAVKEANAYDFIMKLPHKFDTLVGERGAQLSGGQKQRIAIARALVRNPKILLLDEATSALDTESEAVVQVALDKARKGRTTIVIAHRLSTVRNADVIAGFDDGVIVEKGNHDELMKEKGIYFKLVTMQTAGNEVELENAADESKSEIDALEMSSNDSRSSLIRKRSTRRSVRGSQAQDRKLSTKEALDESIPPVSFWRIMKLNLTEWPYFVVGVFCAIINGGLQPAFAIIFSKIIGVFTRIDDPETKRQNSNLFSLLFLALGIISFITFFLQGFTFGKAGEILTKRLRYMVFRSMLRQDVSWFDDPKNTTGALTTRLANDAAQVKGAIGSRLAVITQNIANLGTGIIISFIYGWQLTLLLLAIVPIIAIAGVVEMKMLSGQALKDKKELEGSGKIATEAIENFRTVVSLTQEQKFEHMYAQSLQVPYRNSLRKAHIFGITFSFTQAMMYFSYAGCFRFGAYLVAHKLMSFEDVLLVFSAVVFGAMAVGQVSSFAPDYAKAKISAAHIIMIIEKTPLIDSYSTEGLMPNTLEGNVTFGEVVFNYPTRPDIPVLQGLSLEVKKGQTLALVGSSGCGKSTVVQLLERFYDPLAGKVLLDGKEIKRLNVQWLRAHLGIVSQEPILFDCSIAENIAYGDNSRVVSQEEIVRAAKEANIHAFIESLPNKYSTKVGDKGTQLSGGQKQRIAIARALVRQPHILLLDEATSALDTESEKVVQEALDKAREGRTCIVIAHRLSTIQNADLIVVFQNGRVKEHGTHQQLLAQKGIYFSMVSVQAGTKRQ
Test details: Inhibition of human ABCB1 expressed in mouse L5178 cells assessed as increase in rhodamine-123 accumulation at 2 uM after 10 mins by flow cytometric analysis relative to control
Type: cell-based
Assay setup: mouse L5178 cells expressing human ABCB1, probe rhodamine-123
Provide the reported inhibition at 10 min, 2 µM of each item.
One number for each entry, in %.

Smiles notation: CO/N=C1\C=C2[C@H](CC[C@]3(C)[C@@H]([C@@]4(C)OC(C)(C)O[C@@H]4CCC(C)(C)O)CC[C@@]23O)[C@@]2(C)C[C@@H]3OC(C)(C)O[C@@H]3C[C@@H]12
Reading unit: %
inhibition at 10 min, 2 µM: 2.25

List reported inhibition at 10 min, 2 µM for each of these compounds:
1. CC(C)(O)CC[C@H]1OC(C)(C)O[C@]1(C)[C@H]1CC=C2C3=C/C(=N/O)[C@@H]4C[C@H]5OC(C)(C)O[C@H]5C[C@]4(C)[C@H]3CC[C@@]21C
2. CC(C)(O)CC[C@H]1OC(C)(C)O[C@]1(C)[C@H]1CC=C2C3=C/C(=N\O)[C@@H]4C[C@H]5OC(C)(C)O[C@H]5C[C@]4(C)[C@H]3CC[C@@]21C
3. C=CCO/N=C1/C=C2C3=CC[C@H]([C@@]4(C)OC(C)(C)O[C@@H]4CCC(C)(C)O)[C@@]3(C)CC[C@@H]2[C@@]2(C)C[C@@H]3OC(C)(C)O[C@@H]3C[C@@H]12
4. CO/N=C1/C=C2C3=CC[C@H]([C@@]4(C)OC(C)(C)O[C@@H]4CCC(C)(C)O)[C@@]3(C)CC[C@@H]2[C@@]2(C)C[C@@H]3OC(C)(C)O[C@@H]3C[C@@H]12
5. CC(C)(O)CC[C@H]1OC(C)(C)O[C@]1(C)[C@H]1CC[C@@]2(O)C3=C/C(=N\OC(C)(C)C)[C@@H]4C[C@H]5OC(C)(C)O[C@H]5C[C@]4(C)[C@H]3CC[C@]12C

1. 7.15
2. 10.6
3. 61.1
4. 33.4
5. 38.8

List reported inhibition at 10 min, 2 µM for each of these compounds:
1. CC(C)(O)CC[C@H]1OC(C)(C)O[C@]1(C)[C@H]1CC=C2C3=CC(=O)N[C@@H]4C[C@H]5OC(C)(C)O[C@H]5C[C@]4(C)[C@H]3CC[C@@]21C
2. C=CCO/N=C1/C=C2[C@H](CC[C@]3(C)[C@@H]([C@@]4(C)OC(C)(C)O[C@@H]4CCC(C)(C)O)CC[C@@]23O)[C@@]2(C)C[C@@H]3OC(C)(C)O[C@@H]3C[C@@H]12
3. CC(C)(O)CC[C@H]1OC(C)(C)O[C@]1(C)[C@H]1CC=C2C3=C/C(=N/OC(C)(C)C)[C@@H]4C[C@H]5OC(C)(C)O[C@H]5C[C@]4(C)[C@H]3CC[C@@]21C
4. CC(C)(O)CC[C@H]1OC(C)(C)O[C@]1(C)[C@H]1CC=C2C3=C/C(=N\OC(C)(C)C)[C@@H]4C[C@H]5OC(C)(C)O[C@H]5C[C@]4(C)[C@H]3CC[C@@]21C

1. 1.16
2. 24.2
3. 59
4. 67.5

Value source: ChEMBL document CHEMBL4145462
